Listed here: items and their measured Residual rate.
Assay: Evaluation of conversion rate to active form in buffer solution (Experimental Example 1)
Assay type: physicochemical
Settings: pH6.0, 3 hr
Give your result in % as a bare value.

Examples with their reported Residual rate follow.
CN1CC[C@H](c2c(O)cc(O)c3c(=O)cc(-c4ccccc4Cl)oc23)[C@H](OC(=O)CN)C1 [Comparative Example 8, reference compound] = 34.5
CNC(=O)Oc1cc(O)c2c(=O)cc(-c3ccccc3Cl)oc2c1[C@H]1CCN(C)C[C@H]1O [Comparative Example 2, reference compound] = 0.0
CN1CC[C@H](c2c(OC(=O)N(C)CCN)cc(O)c3c(=O)cc(-c4ccccc4Cl)oc23)[C@H](O)C1 [Comparative Example 13, reference compound] = 16.8

Problem: Field request: Residual rate | item: CNCCN(C)C(=O)Oc1cc(O)c2c(=O)cc(-c3ccccc3Cl)oc2c1[C@H]1CCN(C)C[C@H]1O [Comparative Example 14, reference compound]
Result: 0.0

Problem: Field request: Residual rate | item: CN1CC[C@H](c2c(O)cc(O)c3c(=O)cc(-c4ccccc4Cl)oc23)[C@H](OC(=O)[C@@H](N)CO)C1 [Comparative Example 9, reference compound]
Result: 44.3

Problem: Field request: Residual rate | item: CC(C)[C@H](N)C(=O)O[C@@H]1CN(C)CC[C@@H]1c1c(O)cc(O)c2c(=O)cc(-c3ccccc3Cl)oc12 [Comparative Example 10, reference compound]
Result: 79.7
